target: High affinity nerve growth factor receptor (Homo sapiens, UniProt P04629, G595R); assay: Inhibition of TRKA G595R mutant (unknown origin) using TK as substrate incubated for 30 mins in presence of ATP by HTRF assay
Sequence (P04629 33-796 G595R limits assumed): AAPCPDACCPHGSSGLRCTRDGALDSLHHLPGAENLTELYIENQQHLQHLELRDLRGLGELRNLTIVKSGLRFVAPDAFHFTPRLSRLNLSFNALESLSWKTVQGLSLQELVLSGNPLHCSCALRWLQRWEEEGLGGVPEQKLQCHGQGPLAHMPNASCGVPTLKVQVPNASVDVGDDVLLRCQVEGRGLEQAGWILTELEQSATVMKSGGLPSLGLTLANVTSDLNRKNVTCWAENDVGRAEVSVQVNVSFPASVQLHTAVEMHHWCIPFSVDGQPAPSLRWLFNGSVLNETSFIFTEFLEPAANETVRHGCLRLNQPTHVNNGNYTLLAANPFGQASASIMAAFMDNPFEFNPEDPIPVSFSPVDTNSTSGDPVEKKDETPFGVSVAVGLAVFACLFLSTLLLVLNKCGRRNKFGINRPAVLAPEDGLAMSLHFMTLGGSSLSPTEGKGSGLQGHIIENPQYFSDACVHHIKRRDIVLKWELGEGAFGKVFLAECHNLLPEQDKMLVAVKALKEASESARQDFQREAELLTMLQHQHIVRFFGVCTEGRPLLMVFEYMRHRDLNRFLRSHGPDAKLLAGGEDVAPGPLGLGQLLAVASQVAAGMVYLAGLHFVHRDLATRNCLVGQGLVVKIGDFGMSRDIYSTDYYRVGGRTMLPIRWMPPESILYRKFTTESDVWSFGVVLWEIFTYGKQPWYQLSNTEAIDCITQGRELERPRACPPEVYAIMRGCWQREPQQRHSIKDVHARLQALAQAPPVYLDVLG
Kindly state IC50 for each of the entries shown.

Please give the measured IC50 for this compound: CNC(=O)c1n[nH]c2ccc(NCc3cc(F)ccc3S(C)(=O)=O)cc12 1120 nM

Requested field: IC50. Item: COc1ccc(F)cc1CNc1ccc2[nH]nc(-n3cccn3)c2c1 550 nM

Which IC50 reading was recorded for the compound COc1ccc(F)cc1CNc1ccc2[nH]nc(-c3cccc(F)c3)c2c1 ? 360 nM

Entry under review: N#Cc1n[nH]c2ccc(NCc3cc(F)ccc3OCC(F)F)cc12 . Reported IC50? 30 nM

If you can, please state the reported IC50 value of Fc1ccc(OCC(F)F)c(CNc2ccc3[nH]nc(-c4cnoc4)c3c2)c1 . 35 nM

GET /values?readout=IC50&item= COc1ccc(F)cc1CNc1ccc2[nH]nc(-c3ccc(F)cc3)c2c1 1350 nM

IC50 for COc1ccc(F)cc1CNc1ccc2[nH]nc(-n3cc(C(F)(F)F)cn3)c2c1 ? 5700 nM

Need IC50 of CNC(=O)c1n[nH]c2ccc(NCc3cc(F)ccc3OC(C)C)cc12 , thanks. 240 nM

// IC50 lookup, key: CNC(=O)c1n[nH]c2ccc(NCc3cc(F)ccc3OCC(F)(F)F)cc12 140 nM

Returns the measured IC50 for the input compound. Input: COc1ccc(F)cc1CNc1ccc2[nH]nc(C(=O)NC3CC3)c2c1 3650 nM

Would you mind telling me what IC50 value was observed for Fc1ccc(OCC(F)F)c(CNc2ccc3[nH]nc(-n4cncn4)c3c2)c1 ? 19 nM

Given COc1ccc(F)cc1CNc1ccc2[nH]nc(C(=O)N3CCC(F)(F)C3)c2c1 , state its recorded IC50. 33100 nM

Would you mind telling me what IC50 value was observed for CNC(=O)c1n[nH]c2ccc(NCc3cc(F)ccc3OC)cc12 ? 92 nM

Consider the compound shown here: COc1ccc(F)cc1CNc1ccc2[nH]nc(C(=O)NO)c2c1 What is its recorded IC50? 4830 nM

Recorded IC50 of CNC(=O)c1n[nH]c2ccc(NCc3cc(F)ccc3P(C)(C)=O)cc12 , please. 5580 nM

Given the compound CNC(=O)c1n[nH]c2ccc(NCc3cc(F)ccc3OCCF)cc12 , what is its reported IC50? 200 nM

Sample CNC(=O)c1n[nH]c2ccc(NCc3cc(F)ccc3OCCO)cc12 — what was its IC50? 1170 nM

Please look up its IC50: COc1ccc(F)cc1CNc1ccc2[nH]nc(C(N)=O)c2c1 670 nM

Could you share which IC50 value was measured for Fc1ccc(OCC(F)F)c(CNc2ccc3[nH]nc(-n4ccnn4)c3c2)c1 ? 63 nM

Item CNC(=O)c1n[nH]c2ccc(NCc3cc(F)ccc3OC3CCOCC3)cc12 has what recorded IC50? 290 nM

Name the recorded IC50 for COc1ccc(F)cc1CNc1ccc2[nH]nc(-c3cn[nH]c3)c2c1 . 110 nM

Please look up its IC50: CNC(=O)c1n[nH]c2ccc(NCc3cc(F)ccc3OC(F)F)cc12 380 nM
